- Test system: MES-SA/Dx5
- Experiment Description: Cytotoxicity in human MES-SA/Dx5 cells assessed as reduction in cell viability at 1.28 uM incubated for 3 days by MTT assay relative to control
- Format: toxicity, cell-based
- Experimental Parameters: mes-sa/dx5, 72 h, time 3 day
# cutoff 5% applies to Activity; >= gives Yes, < gives No

Take a look at these entries with their results.
compound=COc1cc2c(cc1OC)CN(CCc1ccc(-n3nnc(-c4cc(OCc5cccnc5)ccc4NC(=O)c4cc(=O)c5ccccc5o4)n3)cc1)CC2 label=No
compound=COc1cc(NC(=O)c2cnc3ccccc3c2)c(-c2nnn(-c3ccc(CCN4CCc5cnccc5C4)cc3)n2)cc1OCc1ccccc1 label=No
compound=COc1cc2c(cc1OC)CN(CCc1ccc(-n3nnc(-c4cc(OCc5ccccc5)c(OC)cc4NC(=O)c4cc(=O)c5ccccc5o4)n3)cc1)CC2 label=Yes

// query Determine whether this compound has Activity no lower than 5%: CC(=O)N1CCN(c2ccc(OCC3COC(Cn4ccnc4)(c4ccc(Cl)cc4Cl)O3)cc2)CC1 (centres undefined)
// result Yes

// query # bool: Activity of `COc1cc(NC(=O)c2cc(=O)c3ccccc3o2)c(-c2nnn(-c3ccc(CCN4CCn5cncc5C4)cc3)n2)cc1OC` >= 5%
// result Yes

// query Does the compound `COc1cc2c(cc1OC)CN(CCc1ccc(-n3nnc(-c4cc(OC)c(OC)cc4NC(=O)c4ccc(-c5cccnc5)cc4)n3)cc1)CC2` have recorded Activity that is 5% or more?
// result No

// query Does the compound `COc1cc2c(cc1OC)CN(CCc1ccc(-n3nnc(-c4cc(OC)c(OC)cc4NC(=O)c4ccc(-c5ccncc5)cc4)n3)cc1)CC2` have recorded Activity that is 5% or more?
// result Yes

// query For this compound, is measured Activity 5% or higher? `COc1cc(NC(=O)c2cc(=O)c3ccccc3o2)c(-c2nnn(-c3ccc(CCN4CCn5cncc5C4)cc3)n2)cc1OCc1ccccc1`
// result Yes
